test system: substance P induced plasma extravasation; assay: Antagonism of substance P induced plasma extravasation in guinea-pigs; type: in vivo; settings: lowest active dose; female guinea-pigs; compound 1 hour prior to substance P; blue colouring of conjunctiva 10 minutes after challenge
quantity.kind: LAD conjunctiva
// return the numeric value with its unit appended

Sample answers from the record:
Cc1cc(C)cc(NC(=O)CN2CCN(C3CCN(C(=O)c4cc(C(F)(F)F)cc(C(F)(F)F)c4)C(Cc4ccccc4)C3)CC2)c1 (racemic) [Compound 47]	40.0 mg/kg
NC(=O)c1cc(Cl)c(NC(=O)CN2CCN([C@@H]3CCN(C(=O)c4cc(C(F)(F)F)cc(C(F)(F)F)c4)[C@@H](Cc4ccccc4)C3)CC2)c(Cl)c1 (racemic)	10.0 mg/kg

Given Cc1cccc(C)c1NC(=O)CN1CCN(C2CCN(C(=O)c3cc(C(F)(F)F)cc(C(F)(F)F)c3)C(Cc3ccccc3)C2)CC1 (centres unmarked) [Compound 53] , state its recorded LAD conjunctiva.
1.25 mg/kg

Given O=C(O)C=CC(=O)O.O=C(O)C=CC(=O)O.O=C(c1cc(C(F)(F)F)cc(C(F)(F)F)c1)N1CCC(N2CCCN(Cc3ccccc3)CC2)CC1Cc1ccccc1 (racemic) , state its recorded LAD conjunctiva.
40.0 mg/kg

Given Cc1ncc(CN2CCN(C3CCN(C(=O)c4cc(C(F)(F)F)cc(C(F)(F)F)c4)C(Cc4ccccc4)C3)CC2)o1 (racemic) , state its recorded LAD conjunctiva.
2.50 mg/kg

Given Cc1cccc(C)c1NC(=O)CN1CCN(C2CCN(C(=O)c3cc(C(F)(F)F)cc(C(F)(F)F)c3)C(Cc3ccccc3)C2)CC1 (racemic) [Compound 59] , state its recorded LAD conjunctiva.
2.50 mg/kg

Given CCOCCn1c(N2CCN(C3CCN(C(=O)c4cc(C(F)(F)F)cc(C(F)(F)F)c4)C(Cc4ccccc4)C3)CC2)nc2ccccc21 (centres unmarked) , state its recorded LAD conjunctiva.
2.50 mg/kg

Given O=C(C(c1ccccc1)N1CCN(C2CCN(C(=O)c3cc(C(F)(F)F)cc(C(F)(F)F)c3)C(Cc3ccccc3)C2)CC1)N1CCCC1 (mixture of isomers) [Compound 52] , state its recorded LAD conjunctiva.
2.50 mg/kg

Given O=C(CN1CCN(C2CCN(C(=O)c3cc(C(F)(F)F)cc(C(F)(F)F)c3)C(Cc3ccccc3)C2)CC1)NC1(c2ccccc2)CCCCC1 (centres unmarked) [Compound 48] , state its recorded LAD conjunctiva.
2.50 mg/kg

Given Cc1cccc(C)c1NC(=O)CN1CCN(C2CCN(C(=O)c3cc(C(F)(F)F)cc(C(F)(F)F)c3)C(Cc3ccc(C(F)(F)F)cc3)C2)CC1.O=C(O)/C=C/C(=O)O (single isomer, unassigned) , state its recorded LAD conjunctiva.
2.50 mg/kg

Given CCn1nnn(CCN2CCN(C3CCN(C(=O)c4cc(C(F)(F)F)cc(C(F)(F)F)c4)C(Cc4ccccc4)C3)CC2)c1=O.O=C(O)C=CC(=O)O.O=C(O)C=CC(=O)O (racemic) , state its recorded LAD conjunctiva.
10.0 mg/kg
